FYI, the data here is from patent US12297285B2.

- Test system: primary human hepatocytes
- Assay procedure: IRES screening, Gaussia luciferase from LNP-oRNA (Table 27)
- Condition info: Gaussia luciferase luminescence in supernatant 48 hours after LNP-oRNA transfection, normalized to control (caprine kobuvirus IRES)
Value kind: [Mod] PHH Fold Change
Report field: quantity (unit follows the number).

Recorded [Mod] PHH Fold Change, per entry:
Molecule | [Mod] PHH Fold Change
CCCCCCCCCN(CCCCn1ccnc1)C(CCCCCCCCC(=O)OCC(CCCC)CCCCCC)CCCCCCCCC(=O)OCC(CCCC)CCCCCC (centres unmarked) [Lipid 10a-148] | 0.7368 Fold Change
CCCCCCCCC(CC)OC(=O)CCCCCCCN(CCCCCCCC(=O)OC(CCCCCCCC)CCCCCCCC)CCCn1ccnc1C (centres unmarked) [Lipid 10a-138] | 0.6157 Fold Change
Cc1nccn1CCCN(CCCCCCCC(=O)OCC(CCC(C)C)C(C)C)CCCCCCCC(=O)OCC(CCC(C)C)C(C)C (centres unmarked) [Lipid 10a-99] | 1.02 Fold Change
CC(C)=CCCC(C)CC(=O)OCCCCCCC(CCCCCCOC(=O)CC(C)CCC=C(C)C)OC(=O)CCCn1ccnc1C (centres unmarked) [Lipid 10a-119] | 0.6212 Fold Change
CCCCCCCCC(CCCCCC)C(=O)OCCCCCCN(CCCn1ccnc1C)CC(O)CCCCOC(=O)C(CCCCCC)CCCCCCCC (centres unmarked) [Lipid 10a-149] | 0.7118 Fold Change

Prompt: Value lookup for [Mod] PHH Fold Change; key = CCCCCCCCC(CCCCCC)C(=O)OCCCCCCN(CCCCCCOC(=O)C(CCCCCC)CCCCCCCC)CCn1ccnc1C (centres unmarked) [Lipid 10a-139]
Response: 0.5206 Fold Change

Prompt: Find the recorded [Mod] PHH Fold Change belonging to CCCCCCCCCCCCC(O)CN(CCCCCCCC(=O)OC(CCCCCCCC)CCCCCCCC)CCCn1ccnc1C (centres unmarked) [Lipid 10a-150] and report it.
Response: 0.5147 Fold Change

Prompt: Suppose we examine the molecule CCCCC(C)CCC(=O)OCCCCCCC(CCCCCCOC(=O)CCC(C)CCCC)OC(=O)CCCn1ccnc1C (centres unmarked) [Lipid 10a-115] ; what [Mod] PHH Fold Change value has been reported?
Response: 0.425 Fold Change

Prompt: Value lookup for [Mod] PHH Fold Change; key = CCCCCCCCCCCCCCN(CCC(C)n1ccnc1)C(CCCCCCCCC(=O)OCC(CCCC)CCCCCC)CCCCCCCCC(=O)OCC(CCCC)CCCCCC (centres unmarked) [Lipid 10a-134]
Response: 0.4673 Fold Change

Prompt: Give its [Mod] PHH Fold Change value. Item: Cc1nccn1CCCC(=O)OC(CCCCCCCC(=O)OCC(CCC(C)C)C(C)C)CCCCCCCC(=O)OCC(CCC(C)C)C(C)C (centres unmarked) [Lipid 10a-98]
Response: 0.788 Fold Change

Prompt: [Mod] PHH Fold Change lookup needed for CC(C)CCC(COC(=O)CCCCCCCC(CCCCCCCC(=O)OCC(CCC(C)C)C(C)C)OC(=O)CCCn1ccnc1)C(C)C (centres unmarked) [Lipid 10a-97] , thanks.
Response: 1.163 Fold Change

Prompt: What measured [Mod] PHH Fold Change goes with CC(C)CCC(C)CCOC(=O)CCCCCCCC(CCCCCCCC(=O)OCCC(C)CCC(C)C)OC(=O)CCCn1ccnc1 (centres unmarked) [Lipid 10a-101] ?
Response: 1.37 Fold Change

Prompt: Give the measured [Mod] PHH Fold Change of CCCCCCCCCOC(=O)CCCCCCCN(CCCCCCCC(=O)OC(CCCCCCCC)CCCCCCCC)Cc1nccn1C [Lipid 10a-133] .
Response: 0.541 Fold Change

Prompt: Quick one: [Mod] PHH Fold Change for CCCCCCCCCOC(=O)CCCCCCCN(CCCCCCCC(=O)OC(CCCCCCCC)CCCCCCCC)CCC(C)n1ccnc1 (centres unmarked) [Lipid 10a-131] ?
Response: 0.5348 Fold Change
